Biological target: Cellular tumor antigen p53 (Homo sapiens)
Assay: p53 stabilisation in HPV-positive human cells, imaging, p53-positive nuclei imaging, 24 h, 48 h (AID 1508601)
Details: 24/48 h, measured here: p53 positive nuclei at 24 h, stronger effect = higher value, concentration not given here
Out of some 5,700 compounds screened, about 85 (1%) were called active. This is one part of a sample in which actives are shown more often than they occur.
PARAMETER MEASURED: p53-positive nuclei, normalised (%)
# number only, unit % dropped from output

Input: Item `CC[C@@]1(O)C[C@H](O[C@H]2C[C@H](N(C)C)[C@H](O)[C@H](C)O2)c2c(cc3c(c2O)C(=O)c2c(O)cccc2C3=O)[C@H]1C(=O)OC` has what recorded p53-positive nuclei, normalised?
Output: 16.3

Input: Item `O=C1c2ccccc2C(=O)c2ccccc21` has what recorded p53-positive nuclei, normalised?
Output: -0.102

Input: Item C[C@@H]1O[C@@H](O[C@H]2CC[C@]3(C=O)C4CC[C@]5(C)[C@@H](C6=CC(=O)OC6)CC[C@]5(O)C4CC[C@]3(O)C2)[C@H](O)[C@H](O)[C@H]1O (stereo partly drawn) has what recorded p53-positive nuclei, normalised?
Output: 2.41

Input: Item `CCCCC/C=C\C/C=C\C/C=C\C/C=C\CCCC(=O)NCCF` has what recorded p53-positive nuclei, normalised?
Output: -0.0127

Input: Item `CCCCC/C=C\C/C=C\C/C=C\C/C=C\CCCC(=O)N[C@H](C)COP(=O)(O)O` has what recorded p53-positive nuclei, normalised?
Output: -0.0345

Input: Item `CCCCC/C=C\C/C=C\C/C=C\C/C=C\CCCC(=O)N[C@@H](CO)C(=O)O` has what recorded p53-positive nuclei, normalised?
Output: -0.0848

Input: Item `CC[n+]1c(-c2ccccc2)c2cc(N)ccc2c2ccc(N)cc21` has what recorded p53-positive nuclei, normalised?
Output: 45.3

Input: Item `O=c1c2cc(F)ccc2ncn1Cc1cn2ccccc2n1` has what recorded p53-positive nuclei, normalised?
Output: -0.23

Input: Item `CCCCC/C=C\C/C=C\C/C=C\C/C=C\CCCC(=O)Nc1cccc([N+](=O)[O-])c1` has what recorded p53-positive nuclei, normalised?
Output: -0.0854

Input: Item `CCCCC/C=C\C/C=C\C/C=C\C/C=C\CCCC(=O)NC` has what recorded p53-positive nuclei, normalised?
Output: -0.0963

Input: Item `CC[C@@]1(O)C[C@H](O)c2c(cc3c(c2O)C(=O)c2c(O)ccc(O)c2C3=O)[C@H]1C(=O)OC` has what recorded p53-positive nuclei, normalised?
Output: 4.09

Input: Item `CN1CCC(N(C)CCC2CCOCC2)CC1` has what recorded p53-positive nuclei, normalised?
Output: -0.151

Input: Item CO[C@H]1[C@H](O)[C@@H](O[C@H]2CC[C@]3(C=O)C4CC[C@]5(C)[C@@H](C6=CC(=O)OC6)CC[C@]5(O)C4CC[C@@H]3C2)O[C@@H](C)[C@@H]1O (stereo partly drawn) has what recorded p53-positive nuclei, normalised?
Output: 2.96

Input: Item `CN(C)C(=S)SSC(=S)N(C)C` has what recorded p53-positive nuclei, normalised?
Output: 108

Input: Item `CCCCC/C=C\C/C=C\C/C=C\C/C=C\CCCC(=O)NC(CO)CO` has what recorded p53-positive nuclei, normalised?
Output: -0.135

Input: Item `C=C(C)[C@@H]1CCC(C)=C[C@H]1c1c(OC)cc(CCCCC)cc1OC` has what recorded p53-positive nuclei, normalised?
Output: -0.021

Input: Item `CCCCC/C=C\C/C=C\C/C=C\C/C=C\CCCCOC(CO)CO` has what recorded p53-positive nuclei, normalised?
Output: 0.34

Input: Item `c1cc(N2CCNCC2)c2cnccc2c1` has what recorded p53-positive nuclei, normalised?
Output: -0.041
